Assay: Tmax in Beagle dog at 10 mg/kg, po administered as single dose via gavage by LC-MS/MS analysis
Format: ADME, organism-based, Canis lupus familiaris
Conditions: in vivo
ENDPOINT LABEL: Tmax (h)
Write the number in h without appending the unit.

Tmax for `COCCOc1cnc(Sc2cc(C)c(-c3csc(NC(=O)c4ccncc4)n3)c(C)c2)cn1.Cc1ccc(S(=O)(=O)O)cc1` is 1

---

Assay: Tmax in CD-1 mouse at 10 mg/kg, po administered as single dose via gavage by LC-MS/MS analysis
Assay type: ADME, organism-based
Details: in vivo
ENDPOINT LABEL: Tmax (h)
Write the number in h without appending the unit.

Sample records with Tmax:
COCCOc1cnc(Sc2cc(C)c(-c3csc(NC(=O)c4ccncc4)n3)c(C)c2)cn1
0.5
COCCOc1cnc(Sc2cc(C)c(-c3csc(NC(=O)c4ccncc4)n3)c(C)c2)cn1.CS(=O)(=O)O
1.5

Next compound, Tmax to be filled in.
Tmax for `COCCOc1cnc(Sc2cc(C)c(-c3csc(NC(=O)c4ccncc4)n3)c(C)c2)cn1.Cc1ccc(S(=O)(=O)O)cc1` is 1

---

Assay: Cmax in CD-1 mouse at 10 mg/kg, po administered as single dose via gavage by LC-MS/MS analysis
Type: ADME, organism-based
Parameters: route oral, dose 10 mg/kg
Settings: in vivo
Listing: Cmax of selected molecules
Write the number in µM without appending the unit.

COCCOc1cnc(Sc2cc(C)c(-c3csc(NC(=O)c4ccncc4)n3)c(C)c2)cn1.CS(=O)(=O)O
8.44
COCCOc1cnc(Sc2cc(C)c(-c3csc(NC(=O)c4ccncc4)n3)c(C)c2)cn1.Cc1ccc(S(=O)(=O)O)cc1
8.13

Cmax for `COCCOc1cnc(Sc2cc(C)c(-c3csc(NC(=O)c4ccncc4)n3)c(C)c2)cn1` is 6.3

---

Assay: Drug level in tumor of human Huh-7 cells xenografted SCID mouse at 10 mg/kg, iv measured after 1 hr by LC-MS/MS analysis
Format: ADME, organism-based, Neoplasm
Conditions: read-out: Drug uptake
ENDPOINT LABEL: concentration at 1 h
Entry format: amount then unit.

concentration at 1 h for `COCCOc1cnc(Sc2cc(C)c(-c3csc(NC(=O)c4ccncc4)n3)c(C)c2)cn1` is 2660 nM

---

Assay: Drug level in tumor of human Huh-7 cells xenografted SCID mouse at 10 mg/kg, iv measured after 12 hrs by LC-MS/MS analysis
Assay type: ADME, organism-based, Neoplasm
Details: read-out: Drug uptake
ENDPOINT LABEL: concentration at 12 h (nM)
Write the number in nM without appending the unit.

concentration at 12 h for `COCCOc1cnc(Sc2cc(C)c(-c3csc(NC(=O)c4ccncc4)n3)c(C)c2)cn1` is 507

---

Assay: Drug level in tumor of human Huh-7 cells xenografted SCID mouse at 10 mg/kg, iv measured after 4 hrs by LC-MS/MS analysis
Type: ADME, organism-based, Neoplasm
Conditions: read-out: Drug uptake
ENDPOINT LABEL: concentration at 4 h (nM)
Write the number in nM without appending the unit.

concentration at 4 h for `COCCOc1cnc(Sc2cc(C)c(-c3csc(NC(=O)c4ccncc4)n3)c(C)c2)cn1` is 2070

---

Test: Drug level in tumor of human Huh-7 cells xenografted SCID mouse at 10 mg/kg, iv measured after 8 hrs by LC-MS/MS analysis
Assay type: ADME, organism-based, Neoplasm
Settings: read-out: Drug uptake
ENDPOINT LABEL: concentration at 8 h (nM)
Write the number in nM without appending the unit.

concentration at 8 h for `COCCOc1cnc(Sc2cc(C)c(-c3csc(NC(=O)c4ccncc4)n3)c(C)c2)cn1` is 937

---

Assay: AUC in Beagle dog at 10 mg/kg, po administered as single dose via gavage by LC-MS/MS analysis
Type: ADME, organism-based, Canis lupus familiaris
Set-up: dose 10 mg/kg
Settings: in vivo
ENDPOINT LABEL: AUC

AUC for `COCCOc1cnc(Sc2cc(C)c(-c3csc(NC(=O)c4ccncc4)n3)c(C)c2)cn1.Cc1ccc(S(=O)(=O)O)cc1` is 8.61 µM·h

---

Experiment: Cmax in Beagle dog at 10 mg/kg, po administered as single dose via gavage by LC-MS/MS analysis
Format: ADME, organism-based, Canis lupus familiaris
Parameters: route oral, dose 10 mg/kg
Conditions: in vivo
ENDPOINT LABEL: Cmax (nM)
Write the number in nM without appending the unit.

Cmax for `COCCOc1cnc(Sc2cc(C)c(-c3csc(NC(=O)c4ccncc4)n3)c(C)c2)cn1.Cc1ccc(S(=O)(=O)O)cc1` is 980

---

Test: Oral bioavailability in Beagle dog at 10 mg/kg administered as single dose via gavage by LC-MS/MS analysis
Assay type: ADME, organism-based, Canis lupus familiaris
Conditions: in vivo
ENDPOINT LABEL: bioavailability (%)
Write the number in % without appending the unit.

bioavailability for `COCCOc1cnc(Sc2cc(C)c(-c3csc(NC(=O)c4ccncc4)n3)c(C)c2)cn1.Cc1ccc(S(=O)(=O)O)cc1` is 24.9

Data origin: ChEMBL document CHEMBL4680212
